Reference for the values: ChEMBL document CHEMBL2385025

system: Pseudomonas aeruginosa; experiment: Growth inhibition of Pseudomonas aeruginosa PAO1 at 50 uM relative to control; type: functional; conditions: read-out: GI
# inhibition of growth at 50 µM per entry
reported-property: inhibition of growth at 50 µM (%)

COC(=O)CC1=NN(c2ccccc2)C(=O)/C1=C\c1cc(OC)c(OC)c(OC)c1 : -0.864
COC(=O)CC1=NN(c2ccccc2)C(=O)/C1=C\c1ccc(O)cc1 : 14.1
CCOc1ccc(/C=C2\C(=O)N(c3ccccc3)N=C2CC(=O)OC)cc1OC : -1.25
COC(=O)CC1=NN(c2ccccc2)C(=O)/C1=C\c1ccc(OC)cc1OC : -3.78
COC(=O)CC1=NN(c2ccccc2)C(=O)/C1=C\c1ccccc1Br : 9.21
